Target: hSOX2-HMG (Homo sapiens, UniProt P48431)
Assay: EMSA
OBSERVATION_TYPE: Kd

Lookup result for P1/P2 SOX2 binding DNA (dsDNA) DNA 1: GGAAACAATGGA DNA 2: TCCATTGTTTCC ; measured Kd: ~610 nM
